Tested on: Caco-2
experiment.notes: Efflux ratio of permeability from […] in human Caco2 cells
Format: ADME, cell-based
measured.metric: Ratio

Some entries whose results are on file:
[
  {
    "compound.smiles": "CN(Cc1ccccc1)C(=O)[C@@]1(c2ccc(Cl)c(Cl)c2)C[C@H]1CN1CCC(c2ccccc2)(N(C)C(=O)C(N)=O)CC1",
    "Ratio": 13
  },
  {
    "compound.smiles": "CN(Cc1ccc(F)cc1)C(=O)[C@@]1(c2ccc(Cl)c(Cl)c2)C[C@H]1CN1CCN(C(=O)CN2CCCCC2)CC1",
    "Ratio": 4.2
  },
  {
    "compound.smiles": "CCCNC[C@@H]1C[C@@]1(C(=O)N(C)Cc1ccc(F)cc1)c1ccc(Cl)c(Cl)c1",
    "Ratio": 2.7
  },
  {
    "compound.smiles": "CC(C)NC[C@@H]1C[C@@]1(C(=O)N(C)Cc1ccc(F)cc1)c1ccc(Cl)c(Cl)c1",
    "Ratio": 1.5
  }
]

1: CN(Cc1ccc(F)cc1)C(=O)[C@@]1(c2ccc(Cl)c(Cl)c2)C[C@H]1CN1CCN(CC(=O)N2CCCC2)CC1
2: CC(=O)N(C)C1(c2ccccc2)CCN(C[C@@H]2C[C@@]2(C(=O)N(C)Cc2ccccc2)c2ccc(Cl)c(Cl)c2)CC1
3: CN(Cc1ccc(F)cc1)C(=O)[C@@]1(c2ccc(Cl)c(Cl)c2)C[C@H]1CN1CCN(C(=O)CN2CCCC2)CC1
4: CN(Cc1ccccc1)C(=O)[C@@]1(c2ccc(Cl)c(Cl)c2)C[C@H]1CN1CCC(NS(C)(=O)=O)(c2ccccc2)CC1
Input: Your job: order these 4 records by Ratio, ascending. Please respond by ranking the labels in the order requested.
Output: 1, 3, 2, 4
